# Assay System: Adenosine receptor A2b (Homo sapiens, UniProt P29275)
# Sequence (P29275 whole entry): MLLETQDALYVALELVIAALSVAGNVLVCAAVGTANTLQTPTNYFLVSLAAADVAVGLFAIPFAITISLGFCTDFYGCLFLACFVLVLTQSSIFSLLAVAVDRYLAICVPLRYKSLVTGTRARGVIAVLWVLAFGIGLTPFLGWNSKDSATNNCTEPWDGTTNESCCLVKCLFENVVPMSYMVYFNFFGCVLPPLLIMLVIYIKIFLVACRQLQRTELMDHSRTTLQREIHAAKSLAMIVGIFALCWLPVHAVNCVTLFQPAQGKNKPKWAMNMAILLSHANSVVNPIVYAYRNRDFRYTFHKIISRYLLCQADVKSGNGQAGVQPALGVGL
# Assay Info: Antagonist activity at human adenosine A2B receptor expressed in CHO cells assessed as inhibition of NECA-induced adenylyl cyclase activity
Here, each record is paired with measured pIC50 data.
Remember the convention: pIC50 equals -log10 of concentration in molar.

* CCn1cc2c(nc(NC(=O)Cc3ccc4ccccc4c3)n3nc(-c4ccco4)nc23)n1 | 4.98

Given item CCCCn1cc2c(nc(NC(=O)Cc3ccsc3)n3nc(-c4ccco4)nc23)n1 , the value recorded as its pIC50 is 6.04

CC(C)CCn1cc2c(nc(NC(=O)Cc3ccc(C(F)(F)F)cc3)n3nc(-c4ccco4)nc23)n1 yielded pIC50 of 5.26

The measured pIC50 associated with CC(C)CCn1cc2c(nc(NC(=O)Cc3c(Cl)cccc3Cl)n3nc(-c4ccco4)nc23)n1 reads 5.84

Input CC(C)CCn1cc2c(nc(NC(=O)Cc3ccc(F)cc3)n3nc(-c4ccco4)nc23)n1 . Output pIC50: 5.30

Form field pIC50, entry Cn1cc2c(nc(NC(=O)Cc3ccc(F)cc3)n3nc(-c4ccco4)nc23)n1 : 4.89

Note to self: pIC50 recorded for O=C(Nc1nc2nn(CCc3ccccc3)cc2c2nc(-c3ccco3)nn12)C(c1ccccc1)c1ccccc1 was 5.23

The compound listed as O=C(Cc1cccc(Cl)c1)Nc1nc2nn(CCc3ccccc3)cc2c2nc(-c3ccco3)nn12 has a reported pIC50 of 5.04

Form: compound = Cn1cc2c(nc(NC(=O)C(c3ccccc3)c3ccccc3)n3nc(-c4ccco4)nc23)n1 ; pIC50 = 6.44

Recorded result, Cn1cc2c(nc(NC(=O)Cc3ccsc3)n3nc(-c4ccco4)nc23)n1 , pIC50: 4.86

Looking up CCCCn1cc2c(nc(NC(=O)C(c3ccccc3)c3ccccc3)n3nc(-c4ccco4)nc23)n1 , I see its pIC50 listed as 6.11

Record Cn1cc2c(nc(NC(=O)Cc3cccc(Cl)c3)n3nc(-c4ccco4)nc23)n1 . Reported pIC50: 5.05

Record summary for CC(C)CCn1cc2c(nc(NC(=O)Cc3ccc(Cl)cc3)n3nc(-c4ccco4)nc23)n1 : reported pIC50 = 5.91
